Assay: Plasma stability in mice
Assay type: in vitro ADME
Conditions: mouse plasma
Kindly state Plasma stability in mice t1/2 for each of the entries shown.

Prompt: So what's the measured Plasma stability in mice t1/2 for this one? O=c1c(OCCO)c(-c2ccc(O)c(O)c2)oc2cc(O)cc(O)c12
Response: >2 h

Prompt: Entry O=c1c(O)c(-c2ccc(O)c(O)c2)oc2cc(O)cc(O)c12 [quercetin, reference compound] please
Response: 0.12 h

Prompt: Entry O=c1cc(CCc2ccc(O)c(O)c2)oc2cccc(O)c12 please
Response: >2 h

Prompt: Entry CCCCOc1c(-c2ccc(O)c(O)c2)oc2cc(O)cc(O)c2c1=O please
Response: >2 h

Prompt: Entry O=c1cc(-c2ccc(O)c(O)c2)oc2cc(O)cc(O)c12 [luteolin, reference compound] please
Response: >2 h

Prompt: Entry CC(c1ccc(O)c(O)c1)c1cc(=O)c2c(O)cccc2o1 (stereo not drawn) [(13b)] please
Response: >2 h

Prompt: Entry O=C(Nc1ccc(O)c(O)c1)c1cc(=O)c2c(O)cccc2o1 [(24a)] please
Response: 1.38 ± 0.217 h

Prompt: Entry O=c1cc(Cc2ccc(O)c(O)c2)oc2cccc(O)c12 [(13a)] please
Response: >2 h

Prompt: Entry O=c1c(OCCCO)c(-c2ccc(O)c(O)c2)oc2cc(O)cc(O)c12 please
Response: 1.5 h
